Target: T1, human vascular endothelial growth factor receptor-2 Fc chimera (KDR-Fc) (human, UniProt P35968 20-764)
T1 construct: range 1-764; also called human VEGFR-2; not shown: human IgG1 Fc
T1 sequence (P35968 20-764 limits assumed, change not shown, form in doubt): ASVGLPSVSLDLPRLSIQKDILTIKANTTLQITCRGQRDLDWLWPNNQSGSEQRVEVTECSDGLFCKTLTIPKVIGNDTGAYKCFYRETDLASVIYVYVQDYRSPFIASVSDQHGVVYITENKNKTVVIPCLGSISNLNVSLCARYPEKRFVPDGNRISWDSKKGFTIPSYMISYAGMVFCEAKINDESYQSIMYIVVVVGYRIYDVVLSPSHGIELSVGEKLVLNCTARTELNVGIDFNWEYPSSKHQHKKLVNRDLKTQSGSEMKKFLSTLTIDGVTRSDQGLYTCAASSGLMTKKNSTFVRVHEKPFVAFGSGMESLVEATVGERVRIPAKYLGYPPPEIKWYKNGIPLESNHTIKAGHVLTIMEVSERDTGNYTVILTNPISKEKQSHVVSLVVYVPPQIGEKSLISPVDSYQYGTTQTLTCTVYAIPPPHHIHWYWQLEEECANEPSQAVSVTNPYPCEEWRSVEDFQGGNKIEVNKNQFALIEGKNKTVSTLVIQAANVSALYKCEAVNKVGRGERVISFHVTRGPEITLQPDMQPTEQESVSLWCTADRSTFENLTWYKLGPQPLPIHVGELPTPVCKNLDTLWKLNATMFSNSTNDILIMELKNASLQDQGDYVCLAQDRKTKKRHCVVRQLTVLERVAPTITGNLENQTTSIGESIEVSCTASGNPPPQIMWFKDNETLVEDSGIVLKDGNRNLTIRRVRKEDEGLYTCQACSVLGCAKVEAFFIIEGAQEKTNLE
Assay: radioactive equilibrium binding assay, 1 nM KDR-Fc, % of input bound
Reported Binding to 1 nM KDR, % values for the following binders.
Please report the result as a number followed by the unit.

Use the examples below as a reference point.
Binder	Measure name	Result
EGE2 (designed binder, 10Fn3 clone, Del 1-8) EVVAATPTSLLISWRHPHFPTRYYRITYGETGGNSPVQEFTVPLQPPTATISGLKPGVDYTITGYAVTVERNGRQLMTPISINYRT	Binding to 1 nM KDR, %	42%
EGE1 (designed binder, 10Fn3 clone, Del 1-8) EVVAATPTSLLISWRHPHFPTRYYRITYGETGGNSPVQEFTVPLQPPTATISGLKPGVDYTITGYAVTLERNGRKLMTPISINYRT	Binding to 1 nM KDR, %	30%

Using the record for E25 (designed binder, 10Fn3 clone, Del 1-8) EVVAATPTSLLISWRHPHFPTRYYRITYGETGGNSPVQEFTVPLQPPTATISGLKPGVDYTITGYAVTLERNGRELMTPISINYRT , report its Binding to 1 nM KDR, %. 41%
